measurement_notes: Selectivity ratio of Ki for kappa opioid receptor in guinea pig cerebellum to Ki for delta opioid receptor in rat cerebellum membrane
Assay type: cell membranes
result_type: Ratio
Number only, please.

Query: State the recorded Ratio for this entry: CC(C)CN1CC[C@]23Cc4nc5ccccc5cc4C[C@H]2[C@H]1Cc1ccc(O)cc13
Response: 23.2

Query: State the recorded Ratio for this entry: Oc1ccc2c(c1)[C@]13CCN(CC4CC4)[C@H](C2)[C@@H]1Cc1cc2ccccc2nc1C3
Response: 1.9

Query: State the recorded Ratio for this entry: CN1CC[C@]2(c3cccc(O)c3)Cc3nc4ccccc4cc3C[C@H]2C1
Response: 509

Query: State the recorded Ratio for this entry: CN1CC[C@]23Cc4nc5ccccc5cc4C[C@H]2[C@H]1Cc1ccc(O)cc13
Response: 72.9

====

Species: Rattus norvegicus
measurement_notes: Selectivity ratio of Ki for mu opioid receptor in rat cerebellum membrane to Ki for delta opioid receptor in rat cerebellum membrane
Assay type: cell membranes
result_type: Ratio
Number only, please.

Solved cases (3 shown):
Oc1ccc2c(c1)[C@]13CCN(CC4CC4)[C@H](C2)[C@@H]1Cc1cc2ccccc2nc1C3: 4.1
CN1CC[C@]23Cc4nc5ccccc5cc4C[C@H]2[C@H]1Cc1ccc(O)cc13: 82.4
CC(C)CN1CC[C@]23Cc4nc5ccccc5cc4C[C@H]2[C@H]1Cc1ccc(O)cc13: 124

Query: State the recorded Ratio for this entry: CN1CC[C@]2(c3cccc(O)c3)Cc3nc4ccccc4cc3C[C@H]2C1
Response: 197

====

target: Delta-type opioid receptor (Rattus norvegicus)
Sequence (P33533 whole entry): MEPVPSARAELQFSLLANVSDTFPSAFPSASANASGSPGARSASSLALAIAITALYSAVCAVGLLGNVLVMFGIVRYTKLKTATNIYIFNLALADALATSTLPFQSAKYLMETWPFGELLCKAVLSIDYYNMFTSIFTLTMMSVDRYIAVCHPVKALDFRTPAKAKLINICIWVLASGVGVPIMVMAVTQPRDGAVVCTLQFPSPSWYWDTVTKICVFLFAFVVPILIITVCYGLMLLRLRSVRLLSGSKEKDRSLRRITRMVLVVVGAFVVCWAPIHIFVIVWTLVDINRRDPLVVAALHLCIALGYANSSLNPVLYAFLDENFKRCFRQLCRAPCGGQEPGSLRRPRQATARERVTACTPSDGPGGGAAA
measurement_notes: Displacement of [3H]DADLE from delta opioid receptor in rat cerebellum membrane
Listing: pKi of selected molecules
API: returns pKi as number; meaning -log10 of concentration in mol/L.

Solved cases (3 shown):
Oc1ccc2c(c1)[C@]13CCN(CC4CC4)[C@H](C2)[C@@H]1Cc1cc2ccccc2nc1C3: 9.72
CC(C)CN1CC[C@]23Cc4nc5ccccc5cc4C[C@H]2[C@H]1Cc1ccc(O)cc13: 9.72
CN1CC[C@]2(c3cccc(O)c3)Cc3nc4ccccc4cc3C[C@H]2C1: 8.84

Now for another entry.
Query: State the recorded pKi for this entry: CN1CC[C@]23Cc4nc5ccccc5cc4C[C@H]2[C@H]1Cc1ccc(O)cc13
Response: 9.85

====

Mu-type opioid receptor (Rattus norvegicus, UniProt P33535) Ki data
Sequence (P33535 whole entry): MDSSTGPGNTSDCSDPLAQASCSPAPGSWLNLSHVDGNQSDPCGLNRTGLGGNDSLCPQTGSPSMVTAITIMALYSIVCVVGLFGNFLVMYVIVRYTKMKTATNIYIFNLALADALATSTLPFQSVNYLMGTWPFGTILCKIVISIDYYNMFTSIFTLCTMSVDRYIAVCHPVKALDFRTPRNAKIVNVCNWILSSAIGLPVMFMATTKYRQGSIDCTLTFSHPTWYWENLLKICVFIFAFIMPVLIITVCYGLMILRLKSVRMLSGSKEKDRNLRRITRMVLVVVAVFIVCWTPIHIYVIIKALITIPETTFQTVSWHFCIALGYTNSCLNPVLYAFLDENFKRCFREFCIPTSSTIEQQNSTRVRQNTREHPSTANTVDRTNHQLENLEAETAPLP
# number only, unit nM dropped from output

Solved cases (3 shown):
CN1CC[C@]23Cc4nc5ccccc5cc4C[C@H]2[C@H]1Cc1ccc(O)cc13: 11.5
CC(C)CN1CC[C@]23Cc4nc5ccccc5cc4C[C@H]2[C@H]1Cc1ccc(O)cc13: 23.6
CN1CC[C@]2(c3cccc(O)c3)Cc3nc4ccccc4cc3C[C@H]2C1: 284

Now for another entry.
Query: State the recorded Ki for this entry: Oc1ccc2c(c1)[C@]13CCN(CC4CC4)[C@H](C2)[C@@H]1Cc1cc2ccccc2nc1C3
Response: 0.77

====

target: Delta-type opioid receptor (Homo sapiens, UniProt P41143)
Sequence (P41143 whole entry): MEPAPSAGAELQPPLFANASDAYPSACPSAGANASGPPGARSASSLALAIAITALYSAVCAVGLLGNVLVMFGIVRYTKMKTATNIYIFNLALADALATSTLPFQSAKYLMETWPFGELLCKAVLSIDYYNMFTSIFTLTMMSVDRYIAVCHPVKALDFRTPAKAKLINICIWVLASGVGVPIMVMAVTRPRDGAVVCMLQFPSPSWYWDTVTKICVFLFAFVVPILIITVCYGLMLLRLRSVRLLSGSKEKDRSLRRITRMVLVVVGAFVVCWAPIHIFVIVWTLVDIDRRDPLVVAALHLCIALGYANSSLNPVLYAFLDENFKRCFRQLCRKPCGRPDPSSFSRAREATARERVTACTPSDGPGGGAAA
measurement_notes: Agonist activity at human recombinant delta opioid receptor expressed in HEK293 cells by [35S]GTPgammaS binding assay
Type: functional, cell-based
result_type: pEC50
API: returns pEC50 as number; meaning -log10 of concentration in mol/L.

Oc1ccc2c(c1)[C@]13CCN(CC4CC4)[C@H](C2)[C@@H]1Cc1cc2ccccc2nc1C3: 10.74
CN1CC[C@]23Cc4nc5ccccc5cc4C[C@H]2[C@H]1Cc1ccc(O)cc13: 10.33
CC(C)CN1CC[C@]23Cc4nc5ccccc5cc4C[C@H]2[C@H]1Cc1ccc(O)cc13: 10.22

Now for another entry.
Query: Param readout = pEC50; param system = Delta-type opioid receptor (Homo sapiens, UniProt P41143); param query = CN1CC[C@]2(c3cccc(O)c3)Cc3nc4ccccc4cc3C[C@H]2C1 ; response: value
Response: 9.15
